test_target: UniProtKB P17538
Sequence (P17538 19-263): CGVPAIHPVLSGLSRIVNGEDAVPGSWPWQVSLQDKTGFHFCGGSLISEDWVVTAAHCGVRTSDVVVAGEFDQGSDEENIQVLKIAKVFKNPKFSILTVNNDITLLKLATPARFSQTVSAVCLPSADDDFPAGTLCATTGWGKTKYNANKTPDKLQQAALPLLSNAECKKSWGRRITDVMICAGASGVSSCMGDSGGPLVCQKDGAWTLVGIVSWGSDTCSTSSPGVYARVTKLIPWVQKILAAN
assay_text: Enzymatic assay, chymotrypsin
Where a SMILES comes first, the peptide text is derived from it.
Field: pIC50. Provide a value for each of the compounds that follow.
Answers are plain numbers, as −log10 of the molar value.

compound	test_target	pIC50
CCCCCCCC[C@@H]1NC(=O)[C@H](CO)NC(=O)[C@H](C)NC(=O)[C@H]([C@@H](C)O)NC(=O)[C@@H]2CSSC[C@H](NC(=O)[C@H](CCC(N)=O)NC(=O)[C@@H]3CCCN3C(=O)[C@@H]3CCCN3C1=O)C(=O)N[C@@H](Cc1ccc(O)cc1)C(=O)N1CCC[C@@H]1C(=O)N1CCC[C@H]1C(=O)N[C@@H](CCCC)C(=O)N2 [Ex. 81] (HELM PEPTIDE1{[Nle].C.T.A.S.[CCCCCCCC[C@H](N[*:1])C(=O)[*:2]].P.P.Q.C.Y.[dP].P}$PEPTIDE1,PEPTIDE1,2:R3-10:R3|PEPTIDE1,PEPTIDE1,1:R1-13:R2$$$V2.0)	UniProtKB P17538	4.00
CCCCCC[C@@H]1NC(=O)[C@@H]2CCCN2C(=O)[C@H]2CCCN2C(=O)[C@H](Cc2ccc(O)cc2)NC(=O)[C@@H]2CSSC[C@H](NC1=O)C(=O)N[C@@H]([C@@H](C)O)C(=O)N[C@@H](C)C(=O)N[C@@H](CO)C(=O)N[C@@H]([C@@H](C)CC)C(=O)N1CCC[C@H]1C(=O)N1CCC[C@H]1C(=O)N[C@@H](CCC(N)=O)C(=O)N2 [Ex. 99] (HELM PEPTIDE1{[CCCCCC[C@H](N[*:1])C(=O)[*:2]].C.T.A.S.I.P.P.Q.C.Y.[dP].P}$PEPTIDE1,PEPTIDE1,2:R3-10:R3|PEPTIDE1,PEPTIDE1,1:R1-13:R2$$$V2.0)	UniProtKB P17538	5.07
CCCC[C@@H]1NC(=O)[C@@H]2CCCN2C(=O)[C@H]2CCCN2C(=O)[C@H](Cc2ccc(O)cc2)NC(=O)[C@@H]2CSSC[C@H](NC1=O)C(=O)N[C@@H]([C@@H](C)O)C(=O)N[C@@H](C)C(=O)N[C@@H](CO)C(=O)N[C@@H](C1CCCCC1)C(=O)N1CCC[C@H]1C(=O)N1CCC[C@H]1C(=O)N[C@@H](CCC(N)=O)C(=O)N2 [Ex. 84] (HELM PEPTIDE1{[Nle].C.T.A.S.[O=C([C@@H](N[*:1])C1CCCCC1)[*:2]].P.P.Q.C.Y.[dP].P}$PEPTIDE1,PEPTIDE1,2:R3-10:R3|PEPTIDE1,PEPTIDE1,1:R1-13:R2$$$V2.0)	UniProtKB P17538	4.77

// moving on: another record for pIC50
-- ask Give the value of pIC50 reported for the following: CCCC[C@@H]1NC(=O)[C@H](Cc2ccccc2)NC(=O)[C@H]2CCCN2C(=O)[C@H](Cc2ccc(O)cc2)NC(=O)[C@@H]2CSSC[C@H](NC1=O)C(=O)N[C@@H]([C@@H](C)O)C(=O)N[C@@H](C)C(=O)N[C@@H](CO)C(=O)N[C@@H]([C@@H](C)CC)C(=O)N1CCC[C@H]1C(=O)N1CCC[C@H]1C(=O)N[C@@H](CCC(N)=O)C(=O)N2 [Ex. 122] (HELM PEPTIDE1{[Nle].C.T.A.S.I.P.P.Q.C.Y.[dP].F}$PEPTIDE1,PEPTIDE1,2:R3-10:R3|PEPTIDE1,PEPTIDE1,1:R1-13:R2$$$V2.0)
-- reply 4.24
